- test system: Human recombinant DHX9 protein (Homo sapiens (Human))
- protocol notes: DHX9 ATPase assay (ADP-Glo)
- Type: biochemical
Think of 70 as a floor: if DHX9 Biochemical Max Inhibition stands on it or above, it is y; beneath it, n.

[
  {
    "compound": "Cc1cc(C(=O)Nc2cc(Cl)cc(NS(C)(=O)=O)c2)cn1-c1ccc(N2C3CCC2CC3)cn1 [Example 523]",
    "test system": "Human recombinant DHX9 protein (Homo sapiens (Human))",
    "assigned category": "n"
  },
  {
    "compound": "Cc1cc(C(=O)Nc2cc(Cl)cc(NS(C)(=O)=O)c2)cn1-c1ncc(N2CCC2)cn1 [Example 398]",
    "test system": "Human recombinant DHX9 protein (Homo sapiens (Human))",
    "assigned category": "n"
  }
]

Okay, next one:
Is the recorded value of DHX9 Biochemical Max Inhibition equal to or greater than 70 for this compound? CN1C(=O)N(c2ccc(-c3cc(C(=O)Nc4cc(Cl)cc(NS(C)(=O)=O)c4)cn3C)nc2)C(=O)C1(C)C [Example 603]
y

* * *

- test system: Human recombinant DHX9 protein (Homo sapiens (Human))
- protocol notes: DHX9 ATPase assay (ADP-Glo)
- Format: biochemical
Assign DHX9 Biochemical Max Inhibition to each entry below.

# annotated cases, reported DHX9 Biochemical Max Inhibition shown
[
  {
    "compound": "CN(C)C(=O)N1CCN(c2ccc(-n3cc(C(=O)Nc4cc(Cl)cc(NS(C)(=O)=O)c4)cn3)nc2)CC1 [Example 89]",
    "DHX9 Biochemical Max Inhibition": "64.9%"
  },
  {
    "compound": "CN(C)S(=O)(=O)c1ccc(-n2cc(C(=O)Nc3cc(Cl)cc(NS(C)(=O)=O)c3)cn2)nc1 [Example 200]",
    "DHX9 Biochemical Max Inhibition": "57.7%"
  },
  {
    "compound": "CS(=O)(=O)Nc1cc(Cl)cc(NC(=O)c2cnn(-c3ncccc3OCc3nccs3)c2)c1 [Example 205]",
    "DHX9 Biochemical Max Inhibition": "71.4%"
  },
  {
    "compound": "CS(=O)(=O)Nc1cc(Cl)cc(NC(=O)c2cnn(CCCO)c2)c1 [Example 126]",
    "DHX9 Biochemical Max Inhibition": "64.5%"
  },
  {
    "compound": "Cn1cc(C(=O)Nc2cc(Cl)cc(NS(C)(=O)=O)c2)cc1-c1ncc(N2CC(F)(F)C2)cn1 [Example 597]",
    "DHX9 Biochemical Max Inhibition": 69.1
  }
]

Parameter requested: DHX9 Biochemical Max Inhibition. Apply to each item below.
1. CS(=O)(=O)Nc1cc(Cl)cc(NC(=O)c2cnn(CCO)c2)c1 [Example 127]
2. CS(=O)(=O)Nc1cc(Cl)cc(NC(=O)c2cnn(-c3ncccc3-c3cncc(F)c3)c2)c1 [Example 392]
3. Cc1sc(C(=O)Nc2cc(Cl)cc(NS(C)(=O)=O)c2)cc1-c1ncc(N2CC(F)(F)C2)cc1OCC(F)(F)F [Example 707]
4. Cc1sc(C(=O)Nc2cc(Cl)cc(NS(C)(=O)=O)c2)cc1-c1ncccc1OC(C)c1cc(F)cc(F)c1 (single isomer, unassigned) [Example 633]
5. CS(=O)(=O)Nc1cc(Br)cc(NC(=O)c2cc(-c3ccccn3)n(CC#N)c2)c1 [Example 95]
6. Cc1cc(C(=O)Nc2cc(Cl)cc(NS(C)(=O)=O)c2)cn1-c1ncc(N2CC(F)(F)C2)cc1F [Example 420]

["66.4%", 79.3, 67.1, 71.2, "59.2%", 95]

* * *

- test system: Human recombinant DHX9 protein (Homo sapiens (Human), UniProt Q08211)
- Sequence (Q08211 whole entry): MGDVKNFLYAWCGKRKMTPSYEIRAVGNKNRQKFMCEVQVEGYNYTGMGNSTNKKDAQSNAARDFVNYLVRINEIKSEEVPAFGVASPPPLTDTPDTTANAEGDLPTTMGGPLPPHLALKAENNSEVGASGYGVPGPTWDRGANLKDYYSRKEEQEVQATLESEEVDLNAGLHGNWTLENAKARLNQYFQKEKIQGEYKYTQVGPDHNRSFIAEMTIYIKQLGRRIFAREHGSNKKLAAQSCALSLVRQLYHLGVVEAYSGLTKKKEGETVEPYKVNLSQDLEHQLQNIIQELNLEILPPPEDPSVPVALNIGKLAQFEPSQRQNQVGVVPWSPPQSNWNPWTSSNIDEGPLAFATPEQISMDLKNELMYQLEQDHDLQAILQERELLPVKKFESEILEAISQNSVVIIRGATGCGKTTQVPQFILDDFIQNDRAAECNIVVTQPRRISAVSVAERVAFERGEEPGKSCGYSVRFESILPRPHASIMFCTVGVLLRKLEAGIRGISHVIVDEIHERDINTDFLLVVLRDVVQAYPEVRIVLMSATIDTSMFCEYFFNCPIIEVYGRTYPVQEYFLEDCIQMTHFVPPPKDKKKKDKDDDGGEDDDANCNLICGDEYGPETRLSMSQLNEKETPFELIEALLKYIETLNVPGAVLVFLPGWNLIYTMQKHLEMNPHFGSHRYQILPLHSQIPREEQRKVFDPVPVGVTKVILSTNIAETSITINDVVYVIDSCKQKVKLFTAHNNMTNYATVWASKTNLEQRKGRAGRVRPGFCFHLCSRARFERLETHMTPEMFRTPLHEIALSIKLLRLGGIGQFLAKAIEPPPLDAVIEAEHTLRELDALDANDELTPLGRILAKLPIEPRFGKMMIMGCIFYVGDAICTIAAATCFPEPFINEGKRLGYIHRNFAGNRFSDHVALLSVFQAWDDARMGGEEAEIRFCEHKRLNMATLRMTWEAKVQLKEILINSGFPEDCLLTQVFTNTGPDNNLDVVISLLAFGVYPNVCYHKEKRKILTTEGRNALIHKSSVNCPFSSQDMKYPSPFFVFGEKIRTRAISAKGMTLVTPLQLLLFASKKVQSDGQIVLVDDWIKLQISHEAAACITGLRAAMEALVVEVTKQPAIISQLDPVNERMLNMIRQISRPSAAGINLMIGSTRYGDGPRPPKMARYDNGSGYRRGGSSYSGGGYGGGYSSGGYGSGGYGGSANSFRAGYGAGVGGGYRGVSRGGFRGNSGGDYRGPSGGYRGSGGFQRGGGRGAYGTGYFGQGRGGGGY
- protocol notes: DHX9 ATPase assay (ADP-Glo)
- Type: biochemical
Assign DHX9 Biochemical Max Inhibition to each entry below.
Answers are plain numbers.

# annotated cases, reported DHX9 Biochemical Max Inhibition shown
[
  {
    "molecule": "Cc1sc(C(=O)Nc2cc(Cl)cc(NS(C)(=O)=O)c2)cc1-c1ncccc1OC(C)c1cncc(F)c1 (stereo not drawn) [Example 630]",
    "DHX9 Biochemical Max Inhibition": 67
  },
  {
    "molecule": "Cc1sc(C(=O)Nc2cc(Cl)cc(NS(C)(=O)=O)c2)cc1-c1ncc(N2CC(C(F)(F)F)C2)cc1F [Example 477]",
    "DHX9 Biochemical Max Inhibition": 68
  },
  {
    "molecule": "Cc1ncccc1-c1cc(F)cnc1-c1cc(C(=O)Nc2cc(Cl)cc(NS(C)(=O)=O)c2)sc1C [Example 608]",
    "DHX9 Biochemical Max Inhibition": 75.4
  }
]

Parameter requested: DHX9 Biochemical Max Inhibition. Apply to each item below.
1. Cc1ccnc(OCc2cncc(F)c2)c1-c1cc(C(=O)Nc2cc(Cl)cc(NS(C)(=O)=O)c2)cn1C [Example 624]
2. CS(=O)(=O)Nc1cc(Cl)cc(NC(=O)c2cc3c(s2)CCC3Oc2cccnc2)c1 (stereo not drawn) [Example 687]
3. Cn1cc(C(=O)Nc2cc(Cl)cc(NS(C)(=O)=O)c2)cc1-c1ncc(OC2CN(C(=O)C3CC3)C2)cc1F [Example 697]

[97.2, 68.1, 59.5]

* * *

- test system: Human recombinant DHX9 protein (Homo sapiens (Human))
- protocol notes: DHX9 ATPase assay (ADP-Glo)
- Assay type: biochemical
parameter: DHX9 Biochemical Max Inhibition (%)
One number for each entry, in %.

# annotated cases, reported DHX9 Biochemical Max Inhibition shown
[
  {
    "compound": "CS(=O)(=O)Nc1cc(Cl)cc(NC(=O)c2c[nH]c(-c3ccccc3)n2)c1",
    "unit of measure": "%",
    "DHX9 Biochemical Max Inhibition": 52.5
  },
  {
    "compound": "CC(Oc1cccnc1-n1cc(C(=O)Nc2cc(Cl)cc(NS(C)(=O)=O)c2)cn1)c1ccccc1 (centres unmarked)",
    "unit of measure": "%",
    "DHX9 Biochemical Max Inhibition": 58.4
  },
  {
    "compound": "COc1ccc(-c2cc(C(=O)Nc3cc(Cl)cc(NS(C)(=O)=O)c3)sc2C)nc1",
    "unit of measure": "%",
    "DHX9 Biochemical Max Inhibition": 84.1
  },
  {
    "compound": "Cc1cccc(O)c1-c1csc(C(=O)Nc2cc(Br)cc(NS(C)(=O)=O)c2)c1",
    "unit of measure": "%",
    "DHX9 Biochemical Max Inhibition": 53.5
  }
]

Parameter requested: DHX9 Biochemical Max Inhibition. Apply to each item below.
1. CCCS(=O)(=O)Nc1cc(Cl)cc(NC(=O)c2cc(-c3ncccc3C)cs2)c1
2. CCc1nc2ccc(C(=O)Nc3cc(Cl)cc(NS(C)(=O)=O)c3)cn2c1N(C)C
3. Cc1cn2cc(C(=O)Nc3cc(Cl)cc(NS(C)(=O)=O)c3)cc2c(C)n1
4. CN1CC2(CC(n3cc(C(=O)Nc4cc(Cl)cc(NS(C)(=O)=O)c4)cn3)C2)C1
5. Cc1sc(C(=O)Nc2cc(Cl)cc(NS(C)(=O)=O)c2)cc1-c1ccc(F)cn1
6. Cc1cccnc1-c1ccc(C(=O)Nc2cc(Cl)cc(NS(C)(=O)=O)c2)s1

[49.2, 41.8, 65.6, 77.7, 75.7, 59.2]

Parameter requested: DHX9 Biochemical Max Inhibition. Apply to each item below.
1. Cn1cc(C(=O)Nc2cc(Cl)cc(NS(C)(=O)=O)c2)cc1-c1ncccc1OCc1cncc(F)c1
2. CS(=O)(=O)Nc1cc(Cl)cc(NC(=O)c2cnn(C3CC4(C3)CN(CC(F)(F)F)C4)c2)c1

75.8
69.2

* * *

Assign DHX9 Biochemical Max Inhibition to each entry below.
- test system: Human recombinant DHX9 protein (Homo sapiens (Human))
- protocol notes: DHX9 ATPase assay (ADP-Glo)
- Type: biochemical
Numbers only.

# annotated cases, reported DHX9 Biochemical Max Inhibition shown
[
  {
    "compound": "Cc1cc(N2CCC(F)(F)CC2)cnc1-c1cc(C(=O)Nc2cc(Cl)cc(NS(C)(=O)=O)c2)sc1C [Example 602]",
    "DHX9 Biochemical Max Inhibition": 92.4
  },
  {
    "compound": "Cc1cc(C(=O)Nc2cc(Cl)cc(NS(C)(=O)=O)c2)cn1-c1ncc(N2CC(F)(F)C2)cc1OC1CCC1 [Example 673]",
    "DHX9 Biochemical Max Inhibition": 70.2
  },
  {
    "compound": "Cc1sc(C(=O)Nc2cc(Cl)cc(NS(C)(=O)=O)c2)cc1-c1ccc(N2CCC(F)(F)C2)cn1 [Example 485]",
    "DHX9 Biochemical Max Inhibition": 66.5
  },
  {
    "compound": "Cn1cc(C(=O)Nc2cc(Cl)cc(NS(C)(=O)=O)c2)cc1-c1ncc(N2CCC(F)(F)C2)cn1 [Example 526]",
    "DHX9 Biochemical Max Inhibition": 61.7
  },
  {
    "compound": "Cn1cc(C(=O)Nc2cc(Cl)cc(NS(C)(=O)=O)c2)cc1-c1ncc(N2CCC3(CC2)CC3(F)F)cc1F [Example 518]",
    "DHX9 Biochemical Max Inhibition": 56.7
  },
  {
    "compound": "Cc1cc(C(=O)Nc2cc(Cl)cc(NS(C)(=O)=O)c2)cn1-c1ccc(N2CCCC2=O)cn1 [Example 410]",
    "DHX9 Biochemical Max Inhibition": 69.3
  }
]

Parameter requested: DHX9 Biochemical Max Inhibition. Apply to each item below.
1. Cc1sc(C(=O)Nc2cc(Cl)cc(NS(C)(=O)=O)c2)cc1-c1ncc(OC(C)C(=O)O)cn1 (centres unmarked) [Example 671]
2. Cc1cc(C(=O)Nc2cc(Cl)cc(NS(C)(=O)=O)c2)cn1-c1ncc(S(C)(=O)=O)cn1 [Example 656]
3. COc1cc(C(F)(F)F)cnc1-c1cc(C(=O)Nc2cc(Cl)cc(NS(C)(=O)=O)c2)sc1C [Example 550]
4. Cn1cc(C(=O)Nc2cc(Cl)cc(NS(C)(=O)=O)c2)cc1-c1ncc(N2CC3(C2)CC(F)(F)C3)cn1 [Example 492]
5. CS(=O)(=O)Nc1cc(Cl)cc(NC(=O)c2cnn(-c3ncccc3Oc3cccnc3)c2)c1 [Example 676]
6. COc1cnn(-c2cc(C(=O)Nc3cc(Cl)cc(NS(C)(=O)=O)c3)sc2C)c1 [Example 436]
7. Cn1cc(C(=O)Nc2cc(Cl)cc(NS(C)(=O)=O)c2)cc1-c1ccc(OC(C)(C)C)cn1 [Example 555]
8. Cn1cc(C(=O)Nc2cc(Cl)cc(NS(C)(=O)=O)c2)cc1-c1ncc(F)cc1CCc1cncc(F)c1 [Example 728]

[68.8, 71.3, 99.8, 62.3, 68.4, 81.4, 61.9, 62.5]
